assay: Pharmacokinetics in mice; format: in vivo; details: mouse, plasma; male CD-1 mice; 1 mg/kg, iv
ENDPOINT: AUC (µg·h/mL)

a. COc1ccc2c(ncc3ncn(Cc4ccc(S(N)(=O)=O)c(C(F)(F)F)c4)c32)n1 [Compound 65]
b. COc1ccc2c(ncc3ncn(Cc4ccc(S(N)(=O)=O)c(F)c4)c32)n1 [Compound 61]
Of a and b , which one carries the higher reported AUC? To answer, give the label that identifies your chosen option.
b

---

Biological target: human soluble ENPP1 (Homo sapiens, UniProt P22413)
Construct: 20 ng of human soluble ENPP1
Sequence (P22413 103-925 limits assumed): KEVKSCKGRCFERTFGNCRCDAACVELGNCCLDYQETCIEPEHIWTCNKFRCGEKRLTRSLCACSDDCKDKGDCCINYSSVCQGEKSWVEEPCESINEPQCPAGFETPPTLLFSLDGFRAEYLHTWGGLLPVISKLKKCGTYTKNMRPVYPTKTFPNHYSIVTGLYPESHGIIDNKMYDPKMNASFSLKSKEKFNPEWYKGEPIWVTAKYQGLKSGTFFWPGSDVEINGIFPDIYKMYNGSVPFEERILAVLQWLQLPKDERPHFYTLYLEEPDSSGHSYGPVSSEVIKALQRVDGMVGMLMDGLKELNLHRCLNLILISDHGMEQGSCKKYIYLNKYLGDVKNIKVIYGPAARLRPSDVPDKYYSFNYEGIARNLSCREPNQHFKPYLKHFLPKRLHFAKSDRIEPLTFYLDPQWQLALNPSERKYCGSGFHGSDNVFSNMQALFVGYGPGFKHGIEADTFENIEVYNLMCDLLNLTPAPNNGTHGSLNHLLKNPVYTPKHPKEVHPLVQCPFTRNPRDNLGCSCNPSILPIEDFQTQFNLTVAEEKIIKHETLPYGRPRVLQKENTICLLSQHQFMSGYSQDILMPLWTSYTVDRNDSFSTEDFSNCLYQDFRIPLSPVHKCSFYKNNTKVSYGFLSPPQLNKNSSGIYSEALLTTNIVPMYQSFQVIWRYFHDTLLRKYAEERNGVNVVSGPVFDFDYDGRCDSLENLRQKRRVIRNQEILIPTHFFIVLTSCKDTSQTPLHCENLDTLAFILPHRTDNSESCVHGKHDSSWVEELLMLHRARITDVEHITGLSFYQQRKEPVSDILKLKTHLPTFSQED
Experiment: ENPP1 activity assay using p-Nitrophenyl-5′-AMP as a substrate
Assay type: biochemical
Method: AMP-pNP can be used as substrate of ENPP-1. Its hydrolysis products were nucleotide-5′-monophosphate and p-nitrophcnol, which is also a chromogenic product. The amount of p-nitrophenol product formed is measured using its absorbance at 405 nm, which is directly proportional to enzyme activity. […] The percent inhibition at each compound is calculated as follows: % inhibition=(ODMAX−ODCOMPOUND)/(ODMAX−ODMIN)*100. […]
ENDPOINT: IC50 (nM)

What value of IC50 has been reported for the following compound? "COc1ccc2c(c1)ncc1[nH]c(=O)n(Cc3ccc(S(N)(=O)=O)cc3)c12"
35

Now give it for "COc1ccc2c(ncc3nc(C)n(Cc4c(F)cc(S(N)(=O)=O)cc4F)c32)n1" too.
0.16

Now give it for "COc1ccc2c(ncc3[nH]c(=O)n(Cc4c(F)cc(S(N)(=O)=O)cc4F)c32)n1" too.
0.06

Now give it for "COc1ccc2c(n1)nc(C)c1ncn(Cc3ccc(S(N)(=O)=O)cn3)c12" too.
4

Now give it for "COc1ccc2c(ncc3nc(C)n(Cc4cc(F)c(P(=O)(O)O)cc4F)c32)n1" too.
21

A. COc1cc2ncc3nnn(Cc4ccc(S(N)(=O)=O)cc4)c3c2cc1OC
B. COc1ccc2c(ncc3c2n(Cc2c(F)cc(S(N)(=O)=O)cc2F)c(=O)n3CC(F)(F)F)n1
Returns: the label, A or B , whose recorded IC50 is the lower number. To answer, give the label that identifies your chosen option.
B
(B: 0.19 nM, A: 33 nM)

a. COc1ccc2c(ncc3nc(C4CCOCC4)n(Cc4ccc(S(N)(=O)=O)cn4)c32)n1
b. COc1ccc2c(ncc3ncn(Cc4ccc(S(N)(=O)=O)cc4C(F)(F)F)c32)n1
c. COc1ccc2c(ncc3nc(CS(C)(=O)=O)n(Cc4ccc(S(N)(=O)=O)c(F)c4)c32)n1
d. COCCc1nc2c(C)nc3nc(OC)ccc3c2n1Cc1cc(F)c(S(N)(=O)=O)cc1F
e. COc1ccc2c(ncc3nc(C)n(Cc4cc(F)c(S(N)(=O)=O)cc4F)c32)n1
Rank order required: IC50, descending. Note for the reader: the ranking is given by listing the labels in the order requested.
c, d, b, e, a
(c: 23 nM, d: 13 nM, b: 8.6 nM, e: 1.2 nM, a: 0.68 nM)

A. COc1ccc2c(ncc3[nH]c(=O)n(Cc4ccc(P(=O)(O)O)c(F)c4)c32)n1
B. CCC(=O)NS(=O)(=O)c1cc(F)c(Cn2c(=O)[nH]c3cnc4nc(OC)ccc4c32)c(F)c1
C. COc1ccc2c(ncc3[nH]c(=O)n(Cc4ccc(S(N)(=O)=O)cn4)c32)n1
D. COCc1nc2cnc3nc(OC)ccc3c2n1Cc1ccc(S(N)(=O)=O)c(F)c1
Rank items: key IC50, increasing. Note for the reader: the ranking is given by listing the labels in the order requested.
C, D, B, A
(C: 0.79 nM, D: 9.2 nM, B: 19 nM, A: 31 nM)

a. COc1ccc2c(ncc3[nH]c(=O)n(Cc4ccc(S(N)(=O)=O)cc4)c32)n1
b. COc1ccc2c(ncc3nc(C4CN(S(C)(=O)=O)C4)n(Cc4ccc(S(N)(=O)=O)c(F)c4)c32)n1
Of a and b , which one carries the higher reported IC50? To answer, give the label that identifies your chosen option.
b

Attribution: patent US11673889B2
